molecular target: 17-beta-hydroxysteroid dehydrogenase type 1 (Homo sapiens); test: Inhibition of 17-beta HSD1 in human T47D cells assessed as transformation of [14C]E1 to [14C]E2 at 0.1 uM after 24 hrs by thin layer chromatography; format: cell-based
attribute.measured: inhibition (%)

Example entries and their recorded answers appear below.
molecule.smiles: C[C@]12CC[C@@H]3c4ccc(CCCBr)cc4CC[C@H]3[C@@H]1C[C@H](Cc1cccc(C(N)=O)c1)[C@@H]2O
attribute.measured: inhibition
quantitative.result: 41
//
molecule.smiles: C[C@]12CC[C@@H]3c4ccc(B(O)O)cc4CC[C@H]3[C@@H]1C[C@H](Cc1cccc(C(N)=O)c1)[C@@H]2O
attribute.measured: inhibition
quantitative.result: 36

I. CCCN(CC)Cc1ccc2c(c1)CC[C@@H]1[C@@H]2CC[C@]2(C)[C@@H](O)[C@@H](Cc3cccc(C(N)=O)c3)C[C@@H]12
II. C[C@]12CC[C@@H]3c4ccc(C(=O)N5CCCC5)cc4CC[C@H]3[C@@H]1C[C@H](Cc1cccc(C(N)=O)c1)[C@@H]2O
III. C[C@]12CC[C@@H]3c4ccc(CCI)cc4CC[C@H]3[C@@H]1C[C@H](Cc1cccc(C(N)=O)c1)[C@@H]2O
In: Arrange the 3 entries by inhibition so the values rise. Answer by writing out the labels in the requested order.
Out: II, I, III

* * *

system: T47D; experiment: Cytotoxicity against human estrogen-starved estrogen-sensitive T47D cells assessed as cell growth at 1 uM after 7 days by MTS assay relative to control; type: functional; conditions: 168 h, read-out: Activity
attribute.measured: % proliferation above basal control (0% = control) at 1 µM (%)
Answer in %, number only, no unit symbol.

molecule.smiles: C[C@]12CC[C@@H]3c4ccc(CCCl)cc4CC[C@H]3[C@@H]1C[C@H](Cc1cccc(C(N)=O)c1)[C@@H]2O
unit.abbrev: %
quantitative.result: 0
//
molecule.smiles: C[C@]12CC[C@@H]3c4ccc(CCCO)cc4CC[C@H]3[C@@H]1C[C@H](Cc1cccc(C(N)=O)c1)[C@@H]2O
unit.abbrev: %
quantitative.result: 5
//
molecule.smiles: C[C@]12CC[C@@H]3c4ccc(CCc5ccccc5)cc4CC[C@H]3[C@@H]1C[C@H](Cc1cccc(C(N)=O)c1)[C@@H]2O
unit.abbrev: %
quantitative.result: 0
//
molecule.smiles: C[C@]12CC[C@@H]3c4ccc(OCCBr)cc4CC[C@H]3[C@@H]1C[C@H](Cc1cccc(C(N)=O)c1)[C@@H]2O
unit.abbrev: %
quantitative.result: 0
//
molecule.smiles: C[C@]12CC[C@@H]3c4ccc(CCI)cc4CC[C@H]3[C@@H]1C[C@H](Cc1cccc(C(N)=O)c1)[C@@H]2O
unit.abbrev: %
quantitative.result: 0

In: Tell me the measured % proliferation above basal control (0% = control) at 1 µM of "C[C@]12CC[C@@H]3c4ccc(CCCBr)cc4CC[C@H]3[C@@H]1C[C@H](Cc1cccc(C(N)=O)c1)[C@@H]2O" , please.
Out: 0

* * *

molecular target: 17-beta-hydroxysteroid dehydrogenase type 1 (Homo sapiens) (UniProt P14061); experiment: Inhibition of 17-beta HSD1 in human T47D cells assessed as transformation of [14C]E1 to [14C]E2 at 0.1 uM after 24 hrs by thin layer chromatography; assay type: cell-based
attribute.measured: inhibition (%)

molecule.smiles: C[C@]12CC[C@@H]3c4ccc(F)cc4CC[C@H]3[C@@H]1C[C@H](Cc1cccc(C(N)=O)c1)[C@@H]2O
attribute.measured: inhibition
quantitative.result: 10
--
molecule.smiles: C[C@]12CC[C@@H]3c4ccc(CCO)cc4CC[C@H]3[C@@H]1C[C@H](Cc1cccc(C(N)=O)c1)[C@@H]2O
attribute.measured: inhibition
quantitative.result: 18
--
molecule.smiles: CCCN(CC)C(=O)c1ccc2c(c1)CC[C@@H]1[C@@H]2CC[C@]2(C)[C@@H](O)[C@@H](Cc3cccc(C(N)=O)c3)C[C@@H]12
attribute.measured: inhibition
quantitative.result: 10

A. C[C@]12CC[C@@H]3c4ccc(CCCO)cc4CC[C@H]3[C@@H]1C[C@H](Cc1cccc(C(N)=O)c1)[C@@H]2O
B. C[C@]12CC[C@@H]3c4ccc(CC(=O)O)cc4CC[C@H]3[C@@H]1C[C@H](Cc1cccc(C(N)=O)c1)[C@@H]2O
In: Please tell me which of the two, A or B , has the higher reported inhibition value. Kindly state the label of the option you pick.
Out: A
(A: 20%, B: 7%)

* * *

Target: 17-beta-hydroxysteroid dehydrogenase type 1 (Homo sapiens, UniProt P14061)
Sequence (P14061 whole entry): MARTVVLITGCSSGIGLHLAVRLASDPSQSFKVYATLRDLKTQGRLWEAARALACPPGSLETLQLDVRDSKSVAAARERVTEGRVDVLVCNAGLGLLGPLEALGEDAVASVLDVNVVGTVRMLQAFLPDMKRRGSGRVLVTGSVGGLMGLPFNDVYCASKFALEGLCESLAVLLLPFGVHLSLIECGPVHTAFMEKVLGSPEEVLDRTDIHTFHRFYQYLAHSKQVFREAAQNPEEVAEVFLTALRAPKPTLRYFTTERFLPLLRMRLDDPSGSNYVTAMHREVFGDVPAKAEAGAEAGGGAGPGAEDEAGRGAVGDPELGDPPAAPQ
Experiment: Inhibition of 17-beta HSD1 in human T47D cells
Format: cell-based
attribute.measured: pIC50
# reply with the number alone; pIC50 is -log10 of concentration in mol/L

In: Tell me the measured pIC50 of "C[C@]12CC[C@@H]3c4ccc(CCBr)cc4CC[C@H]3[C@@H]1C[C@H](Cc1cccc(C(N)=O)c1)[C@@H]2O" , please.
Out: 7.01

* * *

Quick record of pIC50 values for Cytochrome P450 3A4 (Homo sapiens, UniProt P08684).
# reply with the number alone; pIC50 is -log10 of concentration in mol/L

molecule.smiles: C[C@]12CC[C@@H]3c4ccc(O)cc4CC[C@H]3[C@@H]1C[C@H](Cc1cccc(C(N)=O)c1)[C@@H]2O
quantitative.result: 5.82

In: Tell me the measured pIC50 of "C[C@]12CC[C@@H]3c4ccc(CCBr)cc4CC[C@H]3[C@@H]1C[C@H](Cc1cccc(C(N)=O)c1)[C@@H]2O" , please.
Out: 5.41

* * *

Biological target: 17-beta-hydroxysteroid dehydrogenase type 1 (Homo sapiens) (UniProt P14061)
Sequence (whole entry): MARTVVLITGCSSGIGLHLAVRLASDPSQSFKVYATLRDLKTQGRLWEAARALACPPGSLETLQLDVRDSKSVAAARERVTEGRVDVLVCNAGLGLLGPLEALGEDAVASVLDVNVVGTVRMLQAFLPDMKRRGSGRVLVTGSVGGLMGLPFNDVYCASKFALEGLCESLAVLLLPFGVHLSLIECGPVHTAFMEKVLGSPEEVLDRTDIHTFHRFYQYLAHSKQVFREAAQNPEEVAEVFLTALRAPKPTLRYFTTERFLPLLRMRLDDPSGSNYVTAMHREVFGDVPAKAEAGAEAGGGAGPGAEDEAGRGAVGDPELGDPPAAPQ
Test: Inhibition of 17-beta HSD1 in human T47D cells assessed as transformation of [14C]E1 to [14C]E2 at 0.1 uM after 24 hrs by thin layer chromatography
Type: cell-based
attribute.measured: inhibition (%)

molecule.smiles: CNC(=O)Cc1ccc2c(c1)CC[C@@H]1[C@@H]2CC[C@]2(C)[C@@H](O)[C@@H](Cc3cccc(C(N)=O)c3)C[C@@H]12
inhibition / %: 11
--
molecule.smiles: C[C@]12CC[C@@H]3c4ccc(CCc5ccccc5)cc4CC[C@H]3[C@@H]1C[C@H](Cc1cccc(C(N)=O)c1)[C@@H]2O
inhibition / %: 17
--
molecule.smiles: C[C@]12CC[C@@H]3c4ccc(CCCl)cc4CC[C@H]3[C@@H]1C[C@H](Cc1cccc(C(N)=O)c1)[C@@H]2O
inhibition / %: 12

A. CN(C)Cc1ccc2c(c1)CC[C@@H]1[C@@H]2CC[C@]2(C)[C@@H](O)[C@@H](Cc3cccc(C(N)=O)c3)C[C@@H]12
B. C[C@]12CC[C@@H]3c4ccc(CN5CCCC5)cc4CC[C@H]3[C@@H]1C[C@H](Cc1cccc(C(N)=O)c1)[C@@H]2O
C. C[C@]12CC[C@@H]3c4ccc(N)cc4CC[C@H]3[C@@H]1C[C@H](Cc1cccc(C(N)=O)c1)[C@@H]2O
In: Arrange the 3 entries by inhibition so the values rise. Answer by writing out the labels in the requested order.
Out: B, A, C

* * *

IC50 values for the compounds below.
biological target: 17-beta-hydroxysteroid dehydrogenase type 1 (Homo sapiens, UniProt P14061); experiment: Inhibition of 17-beta HSD1 in human T47D cells assessed as transformation of [14C]E1 to [14C]E2 after 24 hrs by thin layer chromatography; type: cell-based
Answer in nM, number only, no unit symbol.

molecule.smiles: C[C@]12CC[C@@H]3c4ccc(OCCBr)cc4CC[C@H]3[C@@H]1C[C@H](Cc1cccc(C(N)=O)c1)[C@@H]2O
unit.abbrev: nM
IC50: 172

--- query ---
In: Tell me the measured IC50 of "C[C@]12CC[C@@H]3c4ccc(CCCBr)cc4CC[C@H]3[C@@H]1C[C@H](Cc1cccc(C(N)=O)c1)[C@@H]2O" , please.
Out: 153
